Reported cell viability values follow for various compounds
system: HepG2; assay: cell viability relative to DMSO; higher = less toxic; settings: 72 h; 10000 nM
Hi! Could you send only the number? It should be in %, unit omitted.

Known results for compounds:
COC(=O)C[C@](O)(CCC(C)(C)O)C(=O)O[C@@H]1C(OC)=C[C@]23CCCN2CCc2cc4c(cc2[C@H]13)OCO4 0.3
Cn1c(=O)c2c(ncn2CC(=O)Nc2ccc(-c3ccccc3)nn2)n(C)c1=O 79.2
CCNC(=O)[C@@H]1CCCN1C(=O)[C@H](CCCNC(=N)N)NC(=O)[C@H](CC(C)C)NC(=O)[C@@H](C)NC(=O)[C@H](Cc1ccc(O)cc1)NC(=O)[C@H](CO)NC(=O)[C@H](Cc1c[nH]c2ccccc12)NC(=O)[C@H](Cc1cnc[nH]1)NC(=O)[C@@H]1CCC(=O)N1 93.7
O=C(O)c1cc(N2N=C(C(F)(F)F)/C(=C/c3ccc(-c4ccccc4)o3)C2=O)ccc1Cl 92.1

Task: Entry "OC[C@@H](O)[C@@H](O)[C@H](O)[C@@H](O)CO" : reported cell viability = ?
Output: 82.3

Task: Any idea what its cell viability is? The compound is "C[C@@H](O[C@H]1OCCN(Cc2nn[nH]c2CN(C)C)[C@H]1c1ccc(F)cc1)c1cc(C(F)(F)F)cc(C(F)(F)F)c1"
Output: 69.1
